- Test system: scopolamine-induced memory impairment in mice
- experiment_summary: Morris water maze test, scopolamine-induced memory impairment
- Type: in vivo, Swiss albino mice
- setup_conditions: MWM, basal reading before any treatment; one animal from each group
Where a SMILES comes first, the peptide text is derived from it. The star is where a group is joined. Isobutyryl = CC(C)C(=O)*; OAll = C=CCO*
// reported time taken by the animals to reach the platform, after the training (5th day) for each item listed
recorded_metric: time taken by the animals to reach the platform, after the training (5th day) (s)

| compound | scale_unit | observed_value |
| --- | --- | --- |
| CC(C)=CCC/C(C)=C/COC(=O)[C@H](C)NC(=O)[C@@H]1CCCN1C(=O)CNC(=O)C(C)C | s | 5 |
| C=CCOC(=O)[C@H](C)NC(=O)[C@@H]1CCCN1C(=O)CNC(=O)C(C)C [Compound 15, Isobut-Gly-Pro-Ala-O-allyl] (Isobutyryl-Gly-Pro-Ala-OAll) | s | 11 |
| C[C@H](NC(=O)[C@@H]1CCCN1C(=O)CNC(=O)OCc1ccccc1)C(=O)OC/C=C/c1ccccc1 | s | 20 |
| COC(=O)[C@H](C)NC(=O)[C@@H]1CCCN1C(=O)CN [Compound 30, NH2-Gly-Pro-Ala-OMe] (H-Gly-Pro-Ala-OMe) | s | 20 |
| COc1cc2c(cc1OC)C(=O)C(CC1CCN(Cc3ccccc3)CC1)C2 (stereo not drawn) [donepezil, reference compound] | s | 15 |
| CC(C)=CCC/C(C)=C/COC(=O)[C@H](C)NC(=O)[C@@H]1CCCN1C(=O)CNC(=O)OCc1ccccc1 | s | 7 |
